Molecular target: Human ALDH3A1 (Homo sapiens)
Sequence (P30838 whole entry): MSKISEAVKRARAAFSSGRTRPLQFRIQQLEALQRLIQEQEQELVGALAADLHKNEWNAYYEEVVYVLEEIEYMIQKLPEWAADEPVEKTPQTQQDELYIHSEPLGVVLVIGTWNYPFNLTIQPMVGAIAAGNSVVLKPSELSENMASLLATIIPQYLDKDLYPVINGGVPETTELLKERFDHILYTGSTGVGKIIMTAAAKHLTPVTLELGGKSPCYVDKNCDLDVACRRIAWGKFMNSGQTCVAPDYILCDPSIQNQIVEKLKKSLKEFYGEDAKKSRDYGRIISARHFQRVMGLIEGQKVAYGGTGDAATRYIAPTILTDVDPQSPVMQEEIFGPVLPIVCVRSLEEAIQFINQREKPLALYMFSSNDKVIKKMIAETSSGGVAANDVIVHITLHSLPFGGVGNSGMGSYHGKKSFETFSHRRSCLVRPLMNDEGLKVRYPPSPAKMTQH
Assay: ALDH3A1 biochemical assay (benzaldehyde/NADP+, diaphorase-resazurin readout, 1,536-well)
Conditions: Table S2, in-house analogs; curve class
This section presents compounds with their documented CC-v2 values.

Example entries begin here.
# COMPOUND_STRING, CC-v2
records = [
    ("COC(=O)c1ccc2nc(CO[C@H]3CN(Cc4ccc5ccccc5n4)C[C@H]3F)[nH]c2c1", -1.1),
    ("Cc1cc(CNC(=O)c2cc(-c3cnn(C)c3)cc3c2OCCN3C)no1", -2.2),
    ("CNC(=O)c1cccc(-c2cnc3[nH]cc(CC(=O)Nc4ccccc4C)c3c2)c1", -2.4),
]

Now consider the entry below.
Quickly give me recorded CC-v2 for CN1CCOc2c(C(=O)NCCC(N)=O)cc(-c3ccc(O)c(F)c3)cc21
-2.2
